# System: Daphnia magna
# MEASUREMENT SETUP: incubation period 48 h
Give log10 of LC50 for every item shown.
Scale: log10; quantity: LC50; unit before log: µM

In one line, give reported log10 of LC50 of the entry COc1cccc(C=NNC(=O)c2ccncc2)c1[O-].[Cl-].[Pt+2] [complex 8, [Pt(L)(Cl)]] . 1.89

Using the record for COc1cccc(C=NNC(=O)c2ccncc2)c1[O-].[Cl-].[Ni+2] [complex 7, [Ni(L)(Cl)]] , state its measured log10 of LC50. 2.32

// Input: COc1cccc(C=NNC(=O)c2ccncc2)c1[O-].O.O=[N+]([O-])[O-].[Cu+2] [complex 3, [Cu(L)(NO3)]·H2O] . Output its log10 of LC50 only. 0.75

Provide only the value of recorded log10 of LC50 for O=[N+]([O-])[O-].O=[N+]([O-])[O-].[Cu+2] [Cu(NO3)2] 0.14

Give me measured log10 of LC50, please, for this compound: [Cl][Cu][Cl] [CuCl2] -0.01

In one line, give reported log10 of LC50 of the entry CC(=O)[O-].CC(=O)[O-].[Cu+2] [Cu(CH3COO)2] . -0.36

Specify reported log10 of LC50 for the compound shown: [Cl][Ni][Cl] [NiCl2] 1.21

Supply log10 of LC50 value. Item: [Cl][Pt-2]([Cl])([Cl])[Cl].[K+].[K+] [K2PtCl4] 0.75

State its log10 of LC50: COc1cccc(C=NNC(=O)c2ccncc2)c1[O-].O.O.[Cl-].[Cu+2] [complex 1, [Cu(L)(Cl)]·2H2O] 1.84
